Data credit: patent US20170145113A1

# TEST TARGET: T1, His-tagged human HtrA1 protease domain (human, UniProt Q92743 161-367)
# T1 construct: His-tagged protease domain; also called huHtrA1-PD-His; huHtrA1-PD
# T1 sequence (Q92743 other isoform, or with tags, fused parts or gaps limits assumed): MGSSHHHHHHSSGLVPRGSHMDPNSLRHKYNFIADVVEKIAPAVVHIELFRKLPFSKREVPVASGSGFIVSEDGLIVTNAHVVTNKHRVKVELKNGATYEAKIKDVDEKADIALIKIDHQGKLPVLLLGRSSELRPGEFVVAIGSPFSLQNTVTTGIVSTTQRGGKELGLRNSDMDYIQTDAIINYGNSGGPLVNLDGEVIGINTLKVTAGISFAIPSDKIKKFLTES
# ASSAY NOTES: BIACORE SPR, single-cycle kinetics; Fab analyte over captured human HtrA1
READOUT KIND: kon (M⁻¹ s⁻¹)

# BINDER, REPORTED MEASUREMENT
measured = [
    ("h15H6.v2 LC-N94A LC-P95 Fab (Fab, V domains shown, Produced as Fab; also called AP) VH: EVQLVQSGAEVKKPGASVKVSCKASGYTFTDSEMHWVRQAPGQGLEWIGGVDPETDGAAYNQKFKGRATITRDTSTSTAYLELSSLRSEDTAVYYCTRGYDYDYALDYWGQGTLVTVSS VL: DIQMTQSPSSLSASVGDRVTITCRASSSVNFIHWYQQKPGKAPKPLISATSNLASGVPSRFSGSGSGTDFTLTISSLQPEDFATYYCQQWSSAPWTFGQGTKVEIK", 450000),
    ("h15H6.v2 LC-N94Q LC-P95 Fab (Fab, V domains shown, Produced as Fab; also called QP) VH: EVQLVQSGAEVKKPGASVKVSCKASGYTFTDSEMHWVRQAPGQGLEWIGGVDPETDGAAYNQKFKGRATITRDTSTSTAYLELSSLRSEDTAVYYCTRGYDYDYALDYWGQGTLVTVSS VL: DIQMTQSPSSLSASVGDRVTITCRASSSVNFIHWYQQKPGKAPKPLISATSNLASGVPSRFSGSGSGTDFTLTISSLQPEDFATYYCQQWSSQPWTFGQGTKVEIK", 560000),
    ("h15H6.v2 LC-N94S LC-P95 Fab (Fab, V domains shown, Produced as Fab; also called SP) VH: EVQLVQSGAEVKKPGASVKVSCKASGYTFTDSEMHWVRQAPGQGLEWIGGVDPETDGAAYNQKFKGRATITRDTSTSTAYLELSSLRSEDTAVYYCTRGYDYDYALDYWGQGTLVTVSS VL: DIQMTQSPSSLSASVGDRVTITCRASSSVNFIHWYQQKPGKAPKPLISATSNLASGVPSRFSGSGSGTDFTLTISSLQPEDFATYYCQQWSSSPWTFGQGTKVEIK", 480000),
]
